biological target: matriptase (Homo sapiens, UniProt Q9Y5Y6)
Sequence (Q9Y5Y6 whole entry, species assumed): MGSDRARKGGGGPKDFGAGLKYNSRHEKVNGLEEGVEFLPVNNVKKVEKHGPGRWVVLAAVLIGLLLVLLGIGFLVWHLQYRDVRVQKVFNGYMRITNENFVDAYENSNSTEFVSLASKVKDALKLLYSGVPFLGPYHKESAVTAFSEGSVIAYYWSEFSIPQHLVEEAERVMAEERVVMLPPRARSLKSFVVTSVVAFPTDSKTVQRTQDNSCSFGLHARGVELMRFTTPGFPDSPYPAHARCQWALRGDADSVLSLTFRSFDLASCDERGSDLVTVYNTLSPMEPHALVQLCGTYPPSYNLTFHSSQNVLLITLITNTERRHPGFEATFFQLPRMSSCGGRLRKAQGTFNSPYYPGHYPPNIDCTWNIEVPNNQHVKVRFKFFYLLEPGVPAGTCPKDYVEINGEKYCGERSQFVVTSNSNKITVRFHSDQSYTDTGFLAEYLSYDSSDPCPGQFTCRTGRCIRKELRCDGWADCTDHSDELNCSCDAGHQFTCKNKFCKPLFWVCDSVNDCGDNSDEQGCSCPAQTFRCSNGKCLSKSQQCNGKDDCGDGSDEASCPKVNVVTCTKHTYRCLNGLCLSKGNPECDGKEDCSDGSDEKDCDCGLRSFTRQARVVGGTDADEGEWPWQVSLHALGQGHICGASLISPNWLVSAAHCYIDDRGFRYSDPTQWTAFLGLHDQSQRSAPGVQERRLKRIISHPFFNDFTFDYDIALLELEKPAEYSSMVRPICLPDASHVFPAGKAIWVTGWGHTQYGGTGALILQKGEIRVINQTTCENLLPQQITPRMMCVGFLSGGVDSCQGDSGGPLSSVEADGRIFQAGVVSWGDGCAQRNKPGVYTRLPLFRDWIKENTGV
Counter-ions that a name gives are not always drawn.
metric-name: pIC50
pIC50 here is simply -log10 of the concentration when that concentration is written in mol/L.

Prompt: I have this compound here, CN(Cc1cc(Br)cc(Br)c1N)C1CCCCC1 [BHH, bromhexine hydrochloride] , and I need its recorded pIC50.
Response: 4.24

---

molecular target: hepsin (Homo sapiens)
Sequence (P05981 whole entry): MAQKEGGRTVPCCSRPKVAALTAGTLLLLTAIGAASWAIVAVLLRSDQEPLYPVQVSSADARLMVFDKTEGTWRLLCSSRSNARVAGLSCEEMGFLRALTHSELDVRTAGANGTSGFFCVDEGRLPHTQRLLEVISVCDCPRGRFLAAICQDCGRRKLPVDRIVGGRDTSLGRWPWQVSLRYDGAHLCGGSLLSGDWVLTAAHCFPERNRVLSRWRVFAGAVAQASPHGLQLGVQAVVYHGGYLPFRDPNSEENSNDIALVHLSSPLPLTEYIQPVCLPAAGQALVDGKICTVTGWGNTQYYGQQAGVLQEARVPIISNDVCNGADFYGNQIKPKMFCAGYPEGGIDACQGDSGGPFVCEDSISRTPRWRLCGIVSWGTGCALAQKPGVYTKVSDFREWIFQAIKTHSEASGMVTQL
Counter-ions that a name gives are not always drawn.
metric-name: pIC50
Keep it numeric: pIC50 is minus log10 of the concentration in mol/L.

Prompt: Query the reported pIC50 for hepsin (Homo sapiens); item: CN(Cc1cc(Br)cc(Br)c1N)C1CCCCC1 [BHH, bromhexine hydrochloride]
Response: 4.46

---

target: UniProt:P00734; experiment: Thrombin inhibition; assay type: biochemical
Counter-ions that a name gives are not always drawn.
metric-name: IC50

Prompt: Please report the recorded IC50 for CN(Cc1cc(Br)cc(Br)c1N)C1CCCCC1 [BHH, bromhexine hydrochloride] .
Response: > 100 µM

Source of measurements: paper PMC4409786
